# assay_method_text: Plasma pharmacokinetics and tissue distribution 2 h after oral cabazitaxel 10 mg/kg with vehicle or 25 mg/kg ritonavir in wild-type, Oatp1a/1b−/−, Oatp1a/1b/2b1−/−, OATP1B1- and OATP1B3-transgenic mice
# Assay type: in vivo
# condition_parameters: male, FVB, mouse, plasma, po, 25 mg/kg, AUC0-[…], Oatp1a/1b/2b1−/− mice; ritonavir 25 mg/kg oral; cabazitaxel 10 mg/kg oral
# Procedure: All animals were fasted 2 to 3 hours prior to the start of the experiment to minimize variation in absorption after oral administration. […] Subsequently, cardiac puncture was performed with a heparinized needle and syringe collecting a final blood sample. […] All samples were stored at −30° C. until analysis. Differences were considered statistically significant when P<0.05. All data are presented as geometric mean±SD.

given_smiles | AUC(0-t) / µM·h
CC(C)c1nc(CN(C)C(=O)N[C@H](C(=O)N[C@@H](Cc2ccccc2)C[C@H](O)[C@H](Cc2ccccc2)NC(=O)OCc2cncs2)C(C)C)cs1 | 13.1

* * *

# assay_method_text: Plasma pharmacokinetics and tissue distribution 2 h after oral cabazitaxel 10 mg/kg with vehicle or 25 mg/kg ritonavir in wild-type, Oatp1a/1b−/−, Oatp1a/1b/2b1−/−, OATP1B1- and OATP1B3-transgenic mice
# Assay type: in vivo
# condition_parameters: male, FVB, mouse, plasma, po, 25 mg/kg, Oatp1a/1b/2b1−/− mice; ritonavir 25 mg/kg oral; cabazitaxel 10 mg/kg oral

compound | unit_name | Tmax
CC(C)c1nc(CN(C)C(=O)N[C@H](C(=O)N[C@@H](Cc2ccccc2)C[C@H](O)[C@H](Cc2ccccc2)NC(=O)OCc2cncs2)C(C)C)cs1 [ritonavir] | h | 1

* * *

# assay_method_text: Plasma pharmacokinetics and tissue distribution 2 h after oral cabazitaxel 10 mg/kg with vehicle or 25 mg/kg ritonavir in wild-type, Oatp1a/1b−/−, Oatp1a/1b/2b1−/−, OATP1B1- and OATP1B3-transgenic mice
# Type: in vivo
# condition_parameters: male, FVB, OATP1B1-transgenic (Oatp1a/1b−/− background), mouse, plasma, po, 10 mg/kg, OATP1B1-transgenic mice; vehicle; cabazitaxel 10 mg/kg oral; read-out: AUC0-2 h

given_smiles | unit_name | AUC(0-t)
CO[C@H]1C(=O)[C@]2(C)[C@@H](OC)C[C@H]3OC[C@@]3(OC(C)=O)[C@H]2[C@H](OC(=O)c2ccccc2)[C@]2(O)C[C@H](OC(=O)[C@H](O)[C@@H](NC(=O)OC(C)(C)C)c3ccccc3)C(C)=C1C2(C)C | µM·h | 3.7

* * *

# assay_method_text: Plasma pharmacokinetics and tissue distribution 2 h after oral cabazitaxel 10 mg/kg with vehicle or 25 mg/kg ritonavir in wild-type, Oatp1a/1b−/−, Oatp1a/1b/2b1−/−, OATP1B1- and OATP1B3-transgenic mice
# Format: in vivo
# condition_parameters: male, FVB, mouse, plasma, po, 10 mg/kg, OATP1B1-transgenic mice; vehicle pretreatment; oral 10 mg/kg cabazitaxel; plasma, 0-2 h; read-out: AUC0-2 h
Items are presented alongside their recorded AUC(0-t).
value_kind: AUC(0-t) (µM·h)

compound | value_kind | unit_name | obs_value
CC(=O)O[C@@]12CO[C@@H]1C[C@H](O)[C@@]1(C)C(=O)[C@H](O)C3=C(C)[C@@H](OC(=O)[C@H](O)[C@@H](NC(=O)OC(C)(C)C)c4ccccc4)C[C@@](O)([C@@H](OC(=O)c4ccccc4)[C@H]21)C3(C)C [docetaxel] | AUC(0-t) | µM·h | 0.271
CO[C@H]1C(=O)[C@]2(C)[C@@H](OC)C[C@H]3OC[C@@]3(OC(C)=O)[C@H]2[C@H](OC(=O)c2ccccc2)[C@]2(O)C[C@H](OC(=O)[C@H](O)[C@@H](NC(=O)OC(C)(C)C)c3ccccc3)C(C)=C1C2(C)C [cabazitaxel] | AUC(0-t) | µM·h | 3.7

* * *

# assay_method_text: Plasma pharmacokinetics and tissue distribution 2 h after oral cabazitaxel 10 mg/kg with vehicle or 25 mg/kg ritonavir in wild-type, Oatp1a/1b−/−, Oatp1a/1b/2b1−/−, OATP1B1- and OATP1B3-transgenic mice
# Type: in vivo
# condition_parameters: male, FVB, mouse, plasma, po, 10 mg/kg, Oatp1a/1b/2b1−/− mice; vehicle pretreatment; oral 10 mg/kg cabazitaxel; plasma, 0-2 h; read-out: AUC0-2 h
value_kind: AUC(0-t)

given_smiles | obs_value
CC(=O)O[C@@]12CO[C@@H]1C[C@H](O)[C@@]1(C)C(=O)[C@H](O)C3=C(C)[C@@H](OC(=O)[C@H](O)[C@@H](NC(=O)OC(C)(C)C)c4ccccc4)C[C@@](O)([C@@H](OC(=O)c4ccccc4)[C@H]21)C3(C)C | 0.252 µM·h
CO[C@H]1C(=O)[C@]2(C)[C@@H](OC)C[C@H]3OC[C@@]3(OC(C)=O)[C@H]2[C@H](OC(=O)c2ccccc2)[C@]2(O)C[C@H](OC(=O)[C@H](O)[C@@H](NC(=O)OC(C)(C)C)c3ccccc3)C(C)=C1C2(C)C | 2.88 µM·h

* * *

Some compounds, each annotated with its measured Tmax.
# assay_method_text: Plasma pharmacokinetics and tissue distribution 2 h after oral cabazitaxel 10 mg/kg with vehicle or 25 mg/kg ritonavir in wild-type, Oatp1a/1b−/−, Oatp1a/1b/2b1−/−, OATP1B1- and OATP1B3-transgenic mice
# Type: in vivo
# condition_parameters: male, FVB, mouse, plasma, po, 10 mg/kg, OATP1B3-transgenic mice; vehicle pretreatment; oral 10 mg/kg cabazitaxel
value_kind: Tmax (min)

compound | obs_value
CC(=O)O[C@@]12CO[C@@H]1C[C@H](O)[C@@]1(C)C(=O)[C@H](O)C3=C(C)[C@@H](OC(=O)[C@H](O)[C@@H](NC(=O)OC(C)(C)C)c4ccccc4)C[C@@](O)([C@@H](OC(=O)c4ccccc4)[C@H]21)C3(C)C [docetaxel] | 45
CO[C@H]1C(=O)[C@]2(C)[C@@H](OC)C[C@H]3OC[C@@]3(OC(C)=O)[C@H]2[C@H](OC(=O)c2ccccc2)[C@]2(O)C[C@H](OC(=O)[C@H](O)[C@@H](NC(=O)OC(C)(C)C)c3ccccc3)C(C)=C1C2(C)C [cabazitaxel] | 27.5

* * *

# assay_method_text: Carboxylesterase pharmacokinetic experiment: oral cabazitaxel 10 mg/kg, 2 h, in wild-type, Ces1cde−/− and Ces1−/− mice
# Format: in vivo
# condition_parameters: male, FVB, mouse, plasma, po, 10 mg/kg, Ces1−/− mice; oral 10 mg/kg cabazitaxel; plasma; read-out: AUC0-120min

given_smiles | unit_name | AUC(0-t)
CO[C@H]1C(=O)[C@]2(C)[C@@H](OC)C[C@H]3OC[C@@]3(OC(C)=O)[C@H]2[C@H](OC(=O)c2ccccc2)[C@]2(O)C[C@H](OC(=O)[C@H](O)[C@@H](NC(=O)OC(C)(C)C)c3ccccc3)C(C)=C1C2(C)C | µM·h | 0.946

* * *

# assay_method_text: Plasma pharmacokinetics and tissue distribution 2 h after oral cabazitaxel 10 mg/kg with vehicle or 25 mg/kg ritonavir in wild-type, Oatp1a/1b−/−, Oatp1a/1b/2b1−/−, OATP1B1- and OATP1B3-transgenic mice
# Format: in vivo
# condition_parameters: male, FVB, mouse, plasma, po, 25 mg/kg, OATP1B3-transgenic mice; ritonavir 25 mg/kg oral; cabazitaxel 10 mg/kg oral
# Description: All animals were fasted 2 to 3 hours prior to the start of the experiment to minimize variation in absorption after oral administration. […] Subsequently, cardiac puncture was performed with a heparinized needle and syringe collecting a final blood sample. […] All samples were stored at −30° C. until analysis. Differences were considered statistically significant when P<0.05. All data are presented as geometric mean±SD.
value_kind: Cmax (µM)

given_smiles | unit_name | obs_value
CC(C)c1nc(CN(C)C(=O)N[C@H](C(=O)N[C@@H](Cc2ccccc2)C[C@H](O)[C@H](Cc2ccccc2)NC(=O)OCc2cncs2)C(C)C)cs1 | µM | 8.67

* * *

# assay_method_text: Plasma pharmacokinetics and tissue distribution 2 h after oral cabazitaxel 10 mg/kg with vehicle or 25 mg/kg ritonavir in wild-type, Oatp1a/1b−/−, Oatp1a/1b/2b1−/−, OATP1B1- and OATP1B3-transgenic mice
# Format: in vivo
# condition_parameters: male, FVB, wild-type, mouse, plasma, po, 10 mg/kg, wild-type mice; ritonavir 25 mg/kg oral; cabazitaxel 10 mg/kg oral; read-out: AUC0-2 h

given_smiles | unit_name | AUC(0-t)
CO[C@H]1C(=O)[C@]2(C)[C@@H](OC)C[C@H]3OC[C@@]3(OC(C)=O)[C@H]2[C@H](OC(=O)c2ccccc2)[C@]2(O)C[C@H](OC(=O)[C@H](O)[C@@H](NC(=O)OC(C)(C)C)c3ccccc3)C(C)=C1C2(C)C | µM·h | 7.62

* * *

# assay_method_text: Plasma pharmacokinetics and tissue distribution 2 h after oral cabazitaxel 10 mg/kg with vehicle or 25 mg/kg ritonavir in wild-type, Oatp1a/1b−/−, Oatp1a/1b/2b1−/−, OATP1B1- and OATP1B3-transgenic mice
# Assay type: in vivo
# condition_parameters: male, FVB, mouse, liver, oral, 10 mg/kg, wild-type mice; vehicle; cabazitaxel 10 mg/kg oral; 2 h; read-out: Liver-to-plasma ratio
value_kind: Kp at 2 h

compound | obs_value
CO[C@H]1C(=O)[C@]2(C)[C@@H](OC)C[C@H]3OC[C@@]3(OC(C)=O)[C@H]2[C@H](OC(=O)c2ccccc2)[C@]2(O)C[C@H](OC(=O)[C@H](O)[C@@H](NC(=O)OC(C)(C)C)c3ccccc3)C(C)=C1C2(C)C [cabazitaxel] | 3.93
